Give measured inhibition in vivo at 0.05 mg/kg for each item. Keep answers brief.
Test system: Kunming mice
Assay protocol: Analgesic activity by acetic acid-induced writhing method (writhing inhibition rate, ED50)
Type: in vivo
Test parameters: Mus musculus, sc; dosing concentration 0.05 mg/kg, subcutaneous, acetic acid-induced writhing, mice; read-out: Analgesia rate (%) ± SEM
One number for each entry, in %.

List inhibition in vivo at 0.05 mg/kg for every entry below, keeping the order given.
1. CCO[C@]12C[C@H](OC)[C@@]3(OC(=O)C4CCCCC4)CC(C1[C@H]3OC(=O)c1ccc(OC)cc1)[C@]13C4[C@@H](OC)C2[C@H]1N(CC)C[C@]4(COC)CC[C@@H]3OC (some centres unmarked)
2. CCO[C@]12C[C@H](OC)[C@@]3(OC(=O)C4CCOCC4)CC(C1[C@H]3OC(=O)c1ccc(OC)cc1)[C@]13C4[C@@H](OC)C2[C@H]1N(CC)C[C@]4(COC)CC[C@@H]3OC (some centres unmarked)
3. CCN1C[C@]2(COC)CC[C@H](OC)[C@@]34C5C[C@]6(OC(=O)c7cccnc7)[C@@H](OC)C[C@@](OC(C)=O)(C5[C@H]6OC(=O)c5ccc(OC)cc5)C([C@H](OC)C23)[C@@H]14 (some centres unmarked)
4. CCO[C@]12C[C@H](OC)[C@@]3(OC(=O)CC(C)(C)C)CC(C1[C@H]3OC(=O)c1ccc(OC)cc1)[C@@]13C4[C@@H]2[C@H](OC)C1[C@@](COC)(CC[C@@H]3OC)CN4CC (some centres unmarked)
5. CCCC(=O)O[C@]12CC3C([C@H]1OC(=O)c1ccc(OC)cc1)[C@](OC(C)=O)(C[C@@H]2OC)C1[C@H](OC)C2[C@@]4(COC)CC[C@H](OC)[C@@]32[C@@H]1N(CC)C4 (some centres unmarked)

[out]
1: 40.3; 2: 46.1; 3: 47.9; 4: 33.7; 5: 37.9
